Record form. Attribute: MIC. Fill in for each entry.
Test system: Escherichia coli
Assay: Antibacterial activity against extended-spectrum beta-lactamase producing Escherichia coli isolate 14-11 after 18 hrs by agar dilution method
Type: functional
Details: isolate 14-11, 18 h
Bridge positions count the residues as written; N and C are the ends. Square brackets hold non-standard residues; d marks the D form. Peptide text beside a SMILES is read from it. * marks the point of attachment. Octanoyl(7-Me) = CC(C)CCCCCC(=O)*; X1 = CC[C@H](C)CCCCC(=O)*; dDab = NCC[C@@H](N)C(=O)O; Octanoyl = CCCCCCCC(=O)*; Dab = NCC[C@H](N)C(=O)O
One number for each entry, in µg/mL.

CCCCCCCC(=O)N[C@@H](CCN)C(=O)N[C@H](C(=O)N[C@@H](CCN)C(=O)N[C@H]1CCNC(=O)[C@H]([C@@H](C)O)NC(=O)[C@H](CCN)NC(=O)[C@H](CCN)NC(=O)[C@H](CC(C)C)NC(=O)[C@@H](CC(C)C)NC(=O)[C@H](CCN)NC1=O)[C@@H](C)O (Octanoyl-[Dab]T[Dab][Dab][Dab][dL]L[Dab][Dab]T; lactam 4-C); 0.5
CC[C@H](C)CCCCC(=O)N[C@@H](CCN)C(=O)N[C@H](C(=O)N[C@H](CO)C(=O)N[C@H]1CCNC(=O)[C@H]([C@@H](C)O)NC(=O)[C@H](CCN)NC(=O)[C@H](CCN)NC(=O)[C@H]([C@@H](C)O)NC(=O)[C@@H](Cc2ccccc2)NC(=O)[C@H](CCN)NC1=O)[C@@H](C)O; 0.5
CC[C@H](C)CCCCC(=O)N[C@@H](CCN)C(=O)N[C@H](C(=O)N[C@@H](CCN)C(=O)N[C@H]1CCNC(=O)[C@H]([C@@H](C)O)NC(=O)[C@H](CCN)NC(=O)[C@H](CCN)NC(=O)[C@H](C(C)C)NC(=O)[C@@H](CC(C)C)NC(=O)[C@H](CCN)NC1=O)[C@@H](C)O (X1-[Dab]T[Dab][Dab][Dab][dL]V[Dab][Dab]T; lactam 4-C); 0.5

State recorded MIC for all listed compounds.
1. CC[C@H](C)CCCCC(=O)N[C@@H](CCN)C(=O)N[C@H](C(=O)N[C@H](CCN)C(=O)N[C@H]1CCNC(=O)[C@H]([C@@H](C)O)NC(=O)[C@H](CCN)NC(=O)[C@H](CCN)NC(=O)[C@H]([C@@H](C)O)NC(=O)[C@@H](CC(C)C)NC(=O)[C@H](CCN)NC1=O)[C@@H](C)O (X1-[Dab]T[dDab][Dab][Dab][dL]T[Dab][Dab]T; lactam 4-C)
2. CC(C)CCCCCC(=O)N[C@@H](CCN)C(=O)N[C@H](C(=O)N[C@@H](CCN)C(=O)N[C@H]1CCNC(=O)[C@H]([C@@H](C)O)NC(=O)[C@H](CCN)NC(=O)[C@H](CCN)NC(=O)[C@H](CC(C)C)NC(=O)[C@@H](CC(C)C)NC(=O)[C@H](CCN)NC1=O)[C@@H](C)O ({Octanoyl(7-Me)}-[Dab]T[Dab][Dab][Dab][dL]L[Dab][Dab]T; lactam 4-C)

1: 1; 2: 1

Each recorded value in this set is attributed to ChEMBL document CHEMBL4118103.
